Recorded measurements of Activity, one per entry
TGT: Neuronal acetylcholine receptor subunit alpha-7 (Rattus norvegicus) (UniProt Q05941)
Sequence (Q05941 whole entry): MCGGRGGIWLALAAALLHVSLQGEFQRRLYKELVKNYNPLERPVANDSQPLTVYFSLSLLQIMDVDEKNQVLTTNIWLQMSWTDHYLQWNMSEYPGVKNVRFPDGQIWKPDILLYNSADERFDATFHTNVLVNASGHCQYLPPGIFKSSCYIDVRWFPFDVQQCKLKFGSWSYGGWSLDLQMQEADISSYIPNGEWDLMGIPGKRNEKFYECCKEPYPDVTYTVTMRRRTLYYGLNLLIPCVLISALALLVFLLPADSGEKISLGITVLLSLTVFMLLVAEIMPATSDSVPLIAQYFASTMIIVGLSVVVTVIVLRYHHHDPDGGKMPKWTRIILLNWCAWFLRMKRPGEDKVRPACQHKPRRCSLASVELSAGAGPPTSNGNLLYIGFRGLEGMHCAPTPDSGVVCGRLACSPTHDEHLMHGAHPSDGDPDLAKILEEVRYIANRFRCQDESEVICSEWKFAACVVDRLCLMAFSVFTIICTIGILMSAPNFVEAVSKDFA
ASSAY: Positive allosteric modulator activity at rat alpha7 nAChR expressed in GH4C1 cells assessed as potentiation of acetylcholine response at 3 uM at -70 mV holding potential preincubated for 30 secs followed by co-application with acetylcholine by automated patch clamp assay
Type: cell-based
QUANTITY: Activity

[[record]]
molecule = "CC1(C)C(CNC2CCCCC2)C1c1ccc(S(N)(=O)=O)cc1 (racemic)"
obs_value = "< 100%"

[[record]]
molecule = "CC1(C)[C@H](CNc2ccc(F)cc2OC(F)F)[C@H]1c1ccc(S(N)(=O)=O)cc1"
obs_value = "170%"

[[record]]
molecule = "COc1ccc(Cl)cc1NC[C@H]1[C@H](c2ccc(S(N)(=O)=O)cc2)C1(C)C"
obs_value = "11800%"

[[record]]
molecule = "COc1ccc(Cl)cc1NC(=O)C1C(c2ccc(S(N)(=O)=O)cc2)C1(C)C (racemic)"
obs_value = "660%"


----------
ASSAY: Stability in mouse liver microsomes assessed as hepatic extraction ratio at 1 uM measured for 45 mins by LC-MS/MS analysis
Format: ADME, Microsome
CONDITIONS: read-out: ERH
QUANTITY: hepatic extraction ratio at 0.75 h, 1 µM

[[record]]
compound = "COc1ccc(Cl)cc1NC[C@H]1[C@H](c2ccc(S(N)(=O)=O)cc2)C1(C)C"
quantity = "hepatic extraction ratio at 0.75 h, 1 µM"
obs_value = 0.71

[[record]]
compound = "COc1ccc(Cl)cc1NCC1C(c2ccc(S(N)(=O)=O)cc2)C1(C)C (racemic)"
quantity = "hepatic extraction ratio at 0.75 h, 1 µM"
obs_value = 0.82

[[record]]
compound = "COc1ccc(Cl)cc1NC[C@@H]1[C@@H](c2ccc(S(N)(=O)=O)cc2)C1(C)C"
quantity = "hepatic extraction ratio at 0.75 h, 1 µM"
obs_value = 0.79


----------
TGT: Neuronal acetylcholine receptor subunit alpha-7 (Rattus norvegicus) (UniProt Q05941)
ASSAY: Positive allosteric modulator activity at rat alpha7 nAChR expressed in GH4C1 cells assessed as potentiation of acetylcholine response at 3 uM at -70 mV holding potential preincubated for 30 secs followed by co-application with acetylcholine by automated patch clamp assay
Type: cell-based
Classify as follows. Reported Activity greater than or equal to 3000%: 1.0. Reported Activity below: 0.0.

[[record]]
compound = "COc1ccc(Cl)cc1NCC1C(c2ccc(S(=O)(=O)NO)cc2)C1(C)C (racemic)"
answer_label = 0.0

[[record]]
compound = "CC1(C)[C@@H](CNc2ccc(F)cc2C(F)(F)F)[C@@H]1c1ccc(S(N)(=O)=O)cc1"
answer_label = 0.0

[[record]]
compound = "COc1ccc(Cl)cc1NC(=O)C1C(c2ccc(S(N)(=O)=O)cc2)C12CCCC2 (racemic)"
answer_label = 0.0

[[record]]
compound = "COc1ccc(C(F)(F)F)cc1NCC1C(c2ccc(S(N)(=O)=O)cc2)C1(C)C (racemic)"
answer_label = 1.0

[[record]]
compound = "COc1ccc(Cl)cc1NCC1C(c2ccc(S(=O)(=O)NN)cc2)C1(C)C (racemic)"
answer_label = 0.0

[[record]]
compound = "COc1ccc(Cl)cc1NCC1C(c2ccc(S(N)(=O)=O)cc2)C1(C)C (racemic)"
answer_label = 1.0

[[record]]
compound = "CC1(C)C(CNc2ccc(N3CCOCC3)cc2)C1c1ccc(S(N)(=O)=O)cc1 (racemic)"
answer_label = 0.0

[[record]]
compound = "CC(C)(C)c1cc(NCC2C(c3ccc(S(N)(=O)=O)cc3)C2(C)C)no1 (racemic)"
answer_label = 0.0

